tested on: MS2 coat protein; experiment: apparent KD of MS2 coat protein; higher = weaker reporter binding; conditions: Eterna round: R107; input ligand: theophylline 20 uM
Hi, to clarify the labels: T covers apparent KD of MS2 coat protein from 60 nM upward, F covers anything below 60 nM.

[
  {
    "chain": "AAUACAGCUACGGCCGCCACUUUAACUUGGUAUGGGUCCUUCACAAACAUGAGGAUCACCCAUGUAAGGACCGGGUAGCCUUGUU [theeternabot_exclusion_MS2_Trp_B_35]",
    "measured-on": "MS2 coat protein",
    "class-assignment": "F"
  },
  {
    "chain": "GCUGUACCAUGAAGGAGCGUCACGGAGUGCGAAUACACAUGAGGAUCACCCAUGUUUUUAUGGCAGGUAGGUCGCAUGGUACAGC [#02 Same State - Arginine B]",
    "measured-on": "MS2 coat protein",
    "class-assignment": "F"
  },
  {
    "chain": "UGUAUGGACUGAAGGAGCGGUAGAUAACCUGAGGAUCACCCGGGUAAUAAAGGCGAAAGCCACCAGGUAGGUCGCAGUCCAUACU",
    "measured-on": "MS2 coat protein",
    "class-assignment": "T"
  },
  {
    "chain": "AUAUUAAUCGGAAGGAGCGGUACAUGAGGAUCACCCAUGUGGUAAGCUAGCAGAUCCCGUUACCAGGUAGGUCGCCGAGUUAUGA [XArg-B17]",
    "measured-on": "MS2 coat protein",
    "class-assignment": "T"
  },
  {
    "chain": "GGUGGGAGCAACGAUACCAGCUACAUGAGGAUCACCCAUGUGGAAUGGGAGUCAACAGCGAGCCCUUGGCAGCGUUAGACCCAAA [Bebeeserdi]",
    "measured-on": "MS2 coat protein",
    "class-assignment": "F"
  }
]

====

tested on: MS2 coat protein; assay: apparent KD of MS2 coat protein; higher = weaker reporter binding; conditions: Eterna round: R107; input ligand: arginine 13.2 mM
Hi, to clarify the labels: fulfilled covers apparent KD of MS2 coat protein from 0.03 µM upward, not fulfilled covers anything below 0.03 µM.

[
  {
    "chain": "CUAUAAUGAAAACAUUAUAGAGUGGGUGAACGAGGACCGGUACGGCCGCCACUCGGACAUGAGGAUCACCCAUGUCCAUGUGAAA [AstrosExyTryA#24]",
    "class-assignment": "not fulfilled"
  },
  {
    "chain": "CACUUCAUGUGAGAUACCAGUGCCUUACAUGAGGAUCACCCAUGUCGUAAUGUGGAGAAGCACCCUUGGCAGCUCGCUUCGAGUG [Theo B SS t6]",
    "class-assignment": "fulfilled"
  },
  {
    "chain": "AAAAUAAAAGGUGCAAAAUCCUAAUGUGAAGGAGCGCACGAAAGUGCAGGUAGGUCGCACAUGAGGAUCACCCAUGUAGCACCAA [ArgEX 4 #SwitchBubble]",
    "class-assignment": "fulfilled"
  },
  {
    "chain": "AAUACAGCUACGGCCGCCACUUUAACUUGGUAUGGGUCCUUCACAAACAUGAGGAUCACCCAUGUAAGGACCGGGUAGCCUUGUU [theeternabot_exclusion_MS2_Trp_B_35]",
    "class-assignment": "not fulfilled"
  },
  {
    "chain": "UCUGUUUGCUUUGUUUGUUUCUUCUUUGAGCGAGGACCGGUACGGCCGCCACUCGGGUUACAUGAGGAUCACCCAUGUGGUUUCU [Interesting]",
    "class-assignment": "fulfilled"
  },
  {
    "chain": "GGGCCCGGGCCGGAAACGGCCCGGGCCCUGCGAGGACCGGUACGGCCGCCACUCGCUCGAGUGGGUACAUGAGGAUCACCCAUGU [#17 Exclusion Tryptophan A]",
    "class-assignment": "not fulfilled"
  },
  {
    "chain": "UGUAACAUGAGGAUCACCCAUGUGAGUGAUACCAGAUUAGUAGUAGUCCCUUGGCAGCACAUUGGGCGAGUGUAUAGUCUAUGCG [Same State - Theophylline A (Freestyle 11)]",
    "class-assignment": "fulfilled"
  },
  {
    "chain": "AAUAAUAAGGCGGCCGCCACUAAACAUGAGGAUCACCCAUGUCUCGCGGGCUUGCGUUGGGAAAGUAGGACCGGGCCAAUAAUAA [Exclusion - Tryptophan B (Freestyle 8)]",
    "class-assignment": "not fulfilled"
  },
  {
    "chain": "GACCUUGCGGGCGCCCGCAAGGUUGCGGAUACCAGCGAGGUCCAUCGCCCUUGGCAGCCGAACAUGAGGAUCACCCAUGUCGGAC [Same State - Theophylline A Attempt #3 (HarryS)]",
    "class-assignment": "not fulfilled"
  },
  {
    "chain": "ACAUGAGGGAUGGAUACCAGCGACAUGAGGAUCACCCAUGUAUGAGGAUCAGCCAUGUUAUGCCCUUGGCAGCCACGAACAUGAG [ACFMULLIN]",
    "class-assignment": "not fulfilled"
  },
  {
    "chain": "AUGCAUAGCACGGCCGCCACUCAAAUUAAACAUGAGGAUCACCCAUGUAACAUGGAUAAAAUAAAGAGGACCGGGUGAAAUGCAA [JR_SSTryptoB_Sub010]",
    "class-assignment": "not fulfilled"
  }
]

All values here come from the supplement of paper PMC9170038.
